meta.source: PubChem BioAssay (NCI)

test system: UO-31 renal; assay: NCI tumour cell line growth inhibition, 48 h
experimental-readout: GI50

smiles-structure | result
Cc1ccc(NC(=O)Cn2c(Br)nc3c2c(=O)n(C)c(=O)n3C)cc1 | 2130 nM
CN(C)C(=O)O[C@@H]1CN[C@@H](C#Cc2cc3ncnc(Nc4ccc(OCc5cccc(F)c5)c(Cl)c4)c3s2)C1 | 5220 nM
COc1ccc(-c2cn[nH]c2-c2cc(OC)c3c(c2)OCCO3)cc1 | 734 nM
COc1ccc(Cn2c(Cl)c(/C=C3/C(=O)Nc4ccccc43)c3cc(OC)c(C)cc32)cc1 | 5820 nM
COc1ccc(C(=O)N2c3ccccc3Sc3ccccc32)c(C(F)(F)F)c1 | 2620 nM

###

tested on: T-47D breast; assay: NCI tumour cell line growth inhibition, 48 h; in the data active means GI50 below about 0.43 µM; inactive means the rest
Outcomes: 1 (yes) = active, 0 (no) = inactive

compound | class
Cc1c2ccc(N(C)c3ccnc(Nc4cccc(S(N)(=O)=O)c4)n3)cc2nn1C | 0 (no)
O=C1CC(=O)OC(c2ccc([N+](=O)[O-])cc2)O1 | 0 (no)
COc1ccc(CN2c3ccccc3CCc3ccccc32)cc1F | 1 (yes)
COc1ccc(C2CC(n3nnnc3-c3ccccc3)=NN2)cc1 (stereo not drawn) | 0 (no)
O=C1CCCN1CC#CCN1CCCC1 | 0 (no)
COc1cc(S(=O)(=O)Nc2ccc(C3=NNC(c4ccccc4)C3)cc2)ccc1F (stereo not drawn) | 0 (no)
COc1cc(S(C)(=O)=O)ccc1Nc1nc2ccc(-c3ccc(NC(=O)[C@H](C)c4ccc(F)cc4)cc3)cn2n1 | 0 (no)
CCN(CCNc1ccc(C)c2sc3ccccc3c(=O)c12)CC(C)(C)O | 0 (no)

###

test system: SK-MEL-28 melanoma; experiment: NCI tumour cell line growth inhibition, 48 h
Quick list: TGI per entry.

compound | target-or-system | TGI
CN(C)CCCOCCn1c2c(c3ccccc31)CCCC2 | SK-MEL-28 melanoma | 30.2 µM
COC(=O)CCC1=C(C)/C(=C/c2[nH]c(-c3ccc[nH]3)cc2OC)N=C1C | SK-MEL-28 melanoma | 3.55 µM
COc1cc(S(C)(=O)=O)ccc1Nc1nc2ccc(-c3ccc(NC(=O)[C@H](C)c4ccc(F)cc4)cc3)cn2n1 | SK-MEL-28 melanoma | > 100 µM
C[N+](C)(C)c1ncnc2c1ncn2C1CCCCO1 (stereo unspecified) | SK-MEL-28 melanoma | > 100 µM
CCC(c1cccc(O)c1)C(CC)c1cccc(O)c1 (stereo unspecified) | SK-MEL-28 melanoma | 18.2 µM
OC12CC/C(=N/OCc3ccccc3)CC1c1ccccc12 (stereo unspecified) | SK-MEL-28 melanoma | > 100 µM
COc1ccccc1Nc1nc(NNC(=O)Cc2ccccc2)nc(NNC(=O)c2ccncc2)n1 | SK-MEL-28 melanoma | > 10 µM
O=C(NCCCNCCNC(=O)c1cc(-c2ccccc2)nc2ccccc12)c1cc(-c2ccccc2)nc2ccccc12 | SK-MEL-28 melanoma | 3.26 µM
CCc1c(C)c(C#N)c(=S)n(C2OC(CO)C(O)C(O)C2O)c1C (stereo unspecified) | SK-MEL-28 melanoma | > 100 µM
Cn1nc(S(N)(=O)=O)s/c1=N/C(N)=S | SK-MEL-28 melanoma | > 100 µM
Cn1c2ccccc2c2c3c(c4c5ccccc5n(C)c4c21)C(=O)c1ccccc1C3=O | SK-MEL-28 melanoma | > 100 µM

###

test system: NCI-H460 lung; test: NCI tumour cell line growth inhibition, 48 h

compound | TGI
O=c1[nH]c(=O)n(C2OC3COC2C3O)cc1F (stereo not given) | > 100 µM
O=C1c2cccc3cccc(c23)C(=O)N1CCCNOCCONCCCN1C(=O)c2cccc3cccc(c23)C1=O | > 100 µM
Cn1cc(CNCC2CCN(c3ncc(C(=O)NO)cn3)CC2)c2ccccc21 | 11.5 µM
CN1C(=O)C(Cl)(C(Cl)(Cl)S(=O)(=O)O)C(=O)c2ccccc21 (stereo not given) | > 100 µM
O=C(O)CSc1ncccc1[N+](=O)[O-] | > 100 µM
COc1ccccc1Nc1nc(NNC(=O)Cc2ccccc2)nc(NNC(=O)c2ccncc2)n1 | > 10 µM
Nc1ccc2[nH]c(C(=O)N3CC(CCl)c4c3cc(N)c3ccccc43)cc2c1 (stereo not given) | < 0.01 µM
COC(=O)c1c(-c2ccccc2)sc(-c2cccc3ccccc23)c1C(=O)OC | > 100 µM
N#C[C@@H]1C(n2ccc(N)nc2=O)O[C@H](CO)[C@H]1O (stereo not given in full) | > 100 µM
Cc1c2c(OCCCCN3CCN(c4ncccn4)CC3)nn(C)c(=O)c2c(C)n1-c1ccccc1 | 35.6 µM

###

system: SF-268 CNS; experiment: NCI tumour cell line growth inhibition, 48 h

compound | TGI
CCOc1cc(C2CC(c3ccc(NS(=O)(=O)c4cc([N+](=O)[O-])ccc4C)cc3)=NN2)ccc1O (stereo unspecified) | > 100 µM
CCOc1c(Cl)cc(CNC(C)C(O)c2ccccc2)cc1OC (stereo unspecified) | > 100 µM
COc1cc2c(/C=C3/C(=O)N(c4ccccc4)c4ccccc43)c(Cl)[nH]c2cc1C | > 53.8 µM
Cc1c2ccc(N(C)c3ccnc(Nc4cccc(S(N)(=O)=O)c4)n3)cc2nn1C | > 25 µM
CN(C)CCNc1ncnc2nc(-c3ccc4ccccc4c3)[nH]c12 | > 100 µM
NCCCCNCCCNC(=O)c1nc(-c2csc(CCN)n2)sc1Cl | > 100 µM
Nc1ccc2[nH]c(C(=O)N3CC(CCl)c4c3cc(N)c3ccccc43)cc2c1 (stereo unspecified) | < 0.01 µM
COc1cc(S(C)(=O)=O)ccc1Nc1nc2ccc(-c3ccc(NC(=O)[C@H](C)c4ccc(F)cc4)cc3)cn2n1 | > 100 µM
Cc1cc(C)n(CN(Cn2nc(C)cc2C)C2CCCCC2)n1 | 91.3 µM
O=C(CNc1ccc(Cl)cc1Cl)NC1C=Cc2ccc(S(=O)(=O)Nc3ccc(Cl)cc3Cl)cc2C1=O (stereo unspecified) | > 100 µM
CC1(Cl)CC2C(CC1Sc1nnnn1-c1ccccc1)C2(C)C (stereo unspecified) | > 100 µM
C[N+](C)(C)c1ncnc2c1ncn2C1CCCCO1 (stereo unspecified) | > 100 µM
COC(=O)CCC1=C(C)/C(=C/c2[nH]c(-c3ccc[nH]3)cc2OC)N=C1C | 7.01 µM
Oc1ccccc1-c1nc2c3ccccc3c3ccccc3c2[nH]1 | 22.6 µM
Cn1c(=O)c2c(ncn2CN2CCN(Cn3cnc4c3c(=O)n(C)c(=O)n4C)CC2)n(C)c1=O | > 100 µM
OCC1OC(n2cnc3c(/C=C(/O)c4ccccc4)ncnc32)C(O)C1O (stereo unspecified) | > 100 µM
CCC(c1cccc(O)c1)C(CC)c1cccc(O)c1 (stereo unspecified) | 20.3 µM
CCN(CC)CCCC(C)Nc1c2ccc(C)cc2nc2ccc(OC)cc12 (stereo unspecified) | 13.5 µM
O=C1NC2(CN3CCC2CC3)C(=O)N1CN(Cc1ccccc1)c1ccccc1 (stereo unspecified) | > 100 µM
COc1ccc(Cn2c(Cl)c(/C=C3/C(=O)Nc4ccccc43)c3cc(OC)c(C)cc32)cc1 | > 100 µM
O=C(N[C@H]1c2ccsc2/C(=N/O)[C@H]1O)C(F)(F)F | > 100 µM

###

test system: ACHN renal; assay: NCI tumour cell line growth inhibition, 48 h
Quick list: GI50 per entry.

molecule | GI50
CCC(c1cccc(O)c1)C(CC)c1cccc(O)c1 (stereo not given) | 5.64 µM
COc1ccc(Cl)cc1Nc1nc(C(F)(F)F)ccc1C(=O)N/N=C/c1cc(OC)c(OC)c(OC)c1 | 3.28 µM
C[C-](O)O.O/C(=C\[C-](O)c1ccccc1)c1ccccc1.O/C(=C\[C-](O)c1ccccc1)c1ccccc1.[Nd+3] (stereo not given) | 12 µM
COc1ccc(-c2cn[nH]c2-c2cc(OC)c3c(c2)OCCO3)cc1 | 1.26 µM
COc1cc(Cn2c(-c3nonc3N)nc3ccccc32)ccc1C | 0.726 µM

###

test system: HCC-2998 colon; experiment: NCI tumour cell line growth inhibition, 48 h
We use 40 µM as the dividing line for TGI: on or above the line is Satisfied, below is Not satisfied.

compound | class
COc1cc(S(=O)(=O)Nc2ccc(-c3csc(N4C(=O)CSC4c4ccccc4)n3)cc2)ccc1Cl (stereo unspecified) | Satisfied
O=C1C(Br)=C(c2ccccc2)S(=O)c2ccccc21 (stereo unspecified) | Not satisfied
COc1ccc(C(=O)N2c3ccccc3Sc3ccccc32)c(C(F)(F)F)c1 | Not satisfied
C=C=C(C(=O)OC)S(=O)c1ccc([N+](=O)[O-])cc1[N+](=O)[O-] (stereo unspecified) | Not satisfied
COc1ccc(CN2c3ccccc3CCc3ccccc32)cc1F | Satisfied
CC(=O)Oc1ccc(C2COc3cc(OC(C)=O)c(OC(C)=O)cc3C2)cc1 (stereo unspecified) | Satisfied
CCOC(=O)C(/C=N\C(=S)Nc1ccc(OCC)cc1)=C(/O)c1ccccc1 | Satisfied
CC1CCN(CC(=O)N2c3ccccc3Sc3cc4ccccc4cc32)CC1 | Satisfied
Cc1ccc2c(c1)C(c1cccc3ccccc13)OC2=O (stereo unspecified) | Satisfied
C[n+]1c2ccccc2c(C(=O)Nc2ccc(S(=O)(=O)N=C(N)N)cc2)c2ccccc21 | Satisfied
COC(=O)[C@@]12CCCC(=O)[C@@H]1[C@H]1CCCC[C@H]12 | Satisfied
